Assay: NCI Yeast Anticancer Drug Screen. Data for the CLN2oe strain (AID 163);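 further: 0% = growth of vehicle-only control cultures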
Details: S. cerevisiae CLN2oe strain, at 33.0 µM, stronger effect = higher value
This is part of a sample that, as a whole, favours compounds with a hit. Of some 79,000 tested, about 15% had one in any assay.
Note to self: values exactly at 60% are 1 (yes). So growth inhibition at or above 60% is 1 (yes), below is 0 (no).

O=C1CC(C(O)(C(F)(F)F)C(F)(F)Cl)CCC1C(O)(C(F)(F)F)C(F)(F)Cl (stereo unspecified) = 1 (yes)
c1ccc([P+](CCN2Cc3ccccc3C2)(c2ccccc2)c2ccccc2)cc1 = 0 (no)
O=C(O)CNC(c1ccccc1)(c1ccccc1)c1ccccc1 = 1 (yes)
CCN(CC)CC(=O)c1ccc2cc(Cl)c3ccccc3c2c1 = 1 (yes)
O=c1[nH]c2c([N+](=O)[O-])cccc2c2ccccc12 = 0 (no)

Determine whether measured growth inhibition meets or exceeds 60% for CC(=O)CC(c1ccccc1)c1c(O)c2ccccc2oc1=O (stereo unspecified)
0 (no)

API: above_or_equal(metric=growth inhibition, cutoff=60%) for item `Nc1cc2c(cc1N)-c1ccccc1C2=O`
0 (no)

Given `Clc1ccc(/C(=C\c2ccccc2)Cn2ccnc2)cc1` , state whether its growth inhibition is at least 60%.
1 (yes)

For this compound, is measured growth inhibition 60% or higher? `Cc1cccc(/C=N/NC(=S)NC2CCCCC2)n1`
0 (no)

Tell me whether growth inhibition is at least 60% here: `CN(C)CCNC(=Cc1ccc2ccccc2[n+]1C)NCCN(C)C`
0 (no)

Answer whether growth inhibition of `O=C1c2ccccc2C(=O)c2c(O)c(NCCNCCO)cc(O)c21` is greater than or equal to 60%.
1 (yes)

Please check the record Cc1cccc2c1C1c3c(C)cccc3C(CC(=O)O)CC1CC2 (stereo unspecified) and state if its growth inhibition is at or above 60%.
1 (yes)

# bool: growth inhibition of CC1(C)C(O)OC(O)C1(C)C (stereo unspecified) >= 60%
0 (no)

----------
The following compounds are listed with their measured growth inhibition values.
Assay: NCI Yeast Anticancer Drug Screen. Data for the wt2 strain (AID 169);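 further: 0% = growth of vehicle-treated yeast cultures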
Settings: S. cerevisiae wt2 strain growth inhibition; at 1.2 µM; stronger effect = higher value
Compounds without any hit were thinned out: in the full panel of roughly 79,000, 15% have a hit.
State just the number; it will be interpreted in %.

O=C(Cc1ccccc1)NN1C(=O)C(Cl)C1c1cc(Br)cc(Br)c1O (stereo unspecified) = -5
COc1cc(NCCCCNCC(C)(C)C)c2ncccc2c1 = -1
NC(=S)N/N=C1\c2ccccc2CCC1CCC1(O)CCc2ccccc2C1=O (stereo unspecified) = -8
O=C(Nc1ccc(Cl)cc1)c1cc2cc(N=Nc3ccccc3Cl)ccc2oc1=O = 5
c1ccc2nc3c(nc2c1)sc1ccccc13 = -2

So for COC(=O)C(Cc1c[nH]c2ccccc12)N1CN(C)c2ccccc2C1=O (stereo unspecified) , the logged growth inhibition turned out to be 8

In plain terms, `O=C(/C(=C/c1ccc(O)cc1)c1ccccc1)c1ccccc1` has a documented growth inhibition of -38

Query CC(C)(CN1CCCCC1)C(=O)CC(SCCS(=O)(=O)O)c1ccccc1 (stereo unspecified) yields growth inhibition of 0

Reported growth inhibition ( COc1ccc(C(OCC2OC(n3cnc4c(=O)n(Cc5ccccc5[N+](=O)[O-])nnc43)C(O)C2O)(c2ccccc2)c2ccc(OC)cc2)cc1 (stereo unspecified) ) = 1

The recorded growth inhibition for entry CC(=O)/C(=C\c1ccc(Cl)c(Cl)c1)C(=O)C(C)CN(C)C (stereo unspecified) equals -12

The measured growth inhibition associated with COc1ccccc1/C=C\C(=O)C1COCN1 (stereo unspecified) reads 2

----------
Assay: NCI Yeast Anticancer Drug Screen. Data for the sgs1 strain (AID 173);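 further: 0% = growth of vehicle-only control cultures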
Details: S. cerevisiae sgs1 mutant, at 33.0 µM
The panel holds about 79,000 compounds, 15% with a hit somewhere; the sample as a whole holds those more often. Active and inactive are the calls of the source. No stated cut-off is given here; in the data, active means growth inhibition above about 70%; inactive means the rest.
Bench note: report the call from Yes = active, No = inactive

CNC(=O)OCc1c(COC(=O)NC)c(C)n(-c2ccc(Br)cc2)c1C = No
CC(=O)/C(=C\c1ccc(Cl)c(Cl)c1)C(=O)C(C)CN(C)C (stereo not given) = Yes

Returns: the outcome recorded for `O=C(NC(N1CCN(c2cc3c(cc2F)c(=O)c(C(=O)O)cn3C2CC2)CC1)(C(F)(F)F)C(F)(F)F)c1ccccc1` in this assay.
No

# lookup: test call for `CCCCN(CCCC)c1ccc(N=Nc2ccc(S(=O)(=O)O)cc2)cc1`
Yes

GET /call?item= `CCCCS/C(=C(/C#N)C(N)=O)c1cc2c([nH]1)CCCC2` returns the recorded outcome of this test.
No

----------
Assay: NCI Yeast Anticancer Drug Screen. Data for the sgs1 mgt1 strain (AID 161);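 further: 0% = growth of cultures given vehicle only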
Conditions: S. cerevisiae sgs1 mgt1 strain, at 5.0 µM (retest, dose inferred, filed as 0.5)
The panel holds about 79,000 compounds, 15% with a hit somewhere; the sample as a whole holds those more often. Calls of active or inactive are those of the source. Cut-off read from the data, not from the text of the source: active = growth inhibition above about 70%; inactive = the rest.
Please state which outcome applies, choosing from active, inactive

Record excerpt, results attached:
COc1c2c(c3c(c1CCC(=O)O)OC(C)(C)C=C3)OC(C)(C)C=C2 = inactive
NC(N)=NS(=O)(=O)c1ccc(Nc2c3ccccc3nc3c(C(=O)NC(CO)(CO)CO)cccc23)cc1 = inactive
Cc1cc(C)c2[s+]snc2c1 = inactive
Nc1ccc(N=Nc2ccc(-c3ccc(O)cc3)cc2)c2ccc(S(=O)(=O)O)cc12 = inactive
Fc1ccc(Nc2ccc3ccccc3c2)cc1 = inactive

// outcome(item) with item = COc1cc2c(cc1OC)[C@@H](Nc1ccc(C#N)cc1)C1COC(=O)[C@@H]1C2c1cc(OC)c(O)c(OC)c1 (some centres undefined)
inactive

Hello, I am checking results. What call was entered for `CC1=C(C)C(=O)C2=C(OCCO2)C1=O` ?
inactive

Query: recorded result category for CCCCCCCSCC1C(=O)C23C(O)C1CCC2C12COC3(O)C(O)C1C(C)(C)CCC2O (centres undefined) in this test
inactive

Kindly provide the recorded test outcome for the following compound: `CCCCOc1ccc2nc(C)cc(N=[N+]=[N-])c2c1`
inactive

Any idea what this test logged for `CC(C)NCCCNc1c2ccccc2nc2cccc([N+](=O)[O-])c12` ?
active

Please indicate how the test categorized `NNc1ccccc1-c1nc2ccccc2[nH]1` .
inactive

Hi, do you know how `CNC(=O)OCc1c(COC(=O)NC)c(C)n(-c2ccc(Br)cc2)c1C` came out in this test?
inactive

Which outcome was assigned to `CC(=O)O/N=C1C=C/C(=C(/C#N)c2ccccc2)C=C/1C` in this test?
active

What outcome does the record of this test show for `c1ccc2nc3c(nc2c1)sc1ccccc13` ?
inactive

How did this test come out for `Cc1cc(O)c(C(C)C)cc1SC#N` ?
inactive

# outcome recorded in this test, key = CC1CN(/N=C\c2ccc([N+](=O)[O-])o2)C(=O)O1 (centres undefined)
inactive

Look up the recorded call for `Cc1nc2sc3c(c2c(=O)o1)CCCC3` in this test.
inactive

Query: recorded result category for `CS(=O)(=O)O.[Ag]` in this test
inactive

Name the outcome recorded for `CCOC(=O)/C(=C\c1cccc(C)c1)C(C)=O` in the assay.
inactive

Just curious, what result did `O=C1c2ccccc2-c2cc3ccccc3c(=O)n21` get here?
inactive

Hi, sorry to bother you, what did the test record for COc1ccc(C(C)c2cc3c(cc2OC(C)O)OCO3)cc1 (centres undefined) ?
inactive

I'd appreciate the recorded outcome for CC(=O)/C(=C\c1ccc(Cl)c(Cl)c1)C(=O)C(C)CN(C)C (centres undefined) from this test.
inactive

Hi, sorry to bother you, what did the test record for `CCOC(=O)C(Cc1c2ccccc2cc2ccccc12)(NC(C)=O)C(=O)OCC` ?
inactive

Status in this test for CC(=O)CC(c1ccccc1)c1c(O)c2ccccc2oc1=O (centres undefined) ?
inactive

----------
Assay: NCI Yeast Anticancer Drug Screen. Data for the sgs1 mgt1 strain (AID 161);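 further: 0% = growth of cultures given vehicle only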
Conditions: S. cerevisiae sgs1 mgt1 strain, at 5.0 µM (retest, dose inferred, filed as 0.5), stronger effect = higher value
Compounds without any hit were thinned out: in the full panel of roughly 79,000, 15% have a hit.
REPORTED PROPERTY: growth inhibition (%)
Kindly answer with a numeric value in %, unit omitted.

Some molecules with recorded growth inhibition:
CCN(CC)C(=S)N/N=C(\C)c1ccccc1O = -3
CNC(=O)OCc1c2ccncc2c(C)c2c1[nH]c1ccccc12 = 40
N#CCC(=O)N/N=C(\c1ccccc1)C(c1ccccc1)C1(O)C(=O)Nc2c(Cl)ccc(Cl)c21 (stereo unspecified) = 4
CC12CCC(CC(=O)/C1=C(/Br)I)C2(C)C (stereo unspecified) = -9
O=C(O)c1cc2c(cc1S(=O)(=O)O)C1C(C3C2C2(Cl)C(Cl)=C(Cl)C3(Cl)C2(Cl)Cl)C2(Cl)C(Cl)=C(Cl)C1(Cl)C2(Cl)Cl (stereo unspecified) = 37

The recorded growth inhibition for `Cc1cc(OCc2nc(N)nc(N)c2-c2ccc(Cl)c(Cl)c2)ccc1[N+](=O)[O-]` is 54

Record `O=[N+]([O-])c1ccc2[nH]c3c(-c4ccccc4)nccc3c2c1` , field growth inhibition: 10

The reported value for CCCCCCC1OCC(O)C(OCCCC)O1 (stereo unspecified) in terms of growth inhibition is -4

Data provenance is PubChem BioAssay (NCI).
